# Tested on: Histophilus somni
# assay_explanation: minimum inhibitory concentration (MIC)
# setup_conditions: isolate (source animal id): 251
Each entry below carries its reported minimum inhibitory concentration.

Example entries and their recorded answers appear below.
compound	minimum inhibitory concentration
CNC(C)C1CCC(N)C(OC2C(N)CC(N)C(OC3OCC(C)(O)C(NC)C3O)C2O)O1 (stereo unspecified)	≤ 1 µg/mL
CCCNC[C@]1(O)[C@H](C)O[C@@H](O[C@H]2[C@H](C)[C@@H](O[C@@H]3O[C@H](C)C[C@H](N(C)C)[C@H]3O)[C@](C)(O)C[C@@H](C)CN[C@H](C)[C@@H](O)[C@](C)(O)[C@@H](CC)OC(=O)[C@@H]2C)C[C@@]1(C)OC	≤ 8 µg/mL
COc1cc(Cc2cnc(N)nc2N)cc(OC)c1OC.Cc1cc(NS(=O)(=O)c2ccc(N)cc2)no1	≤ 2 µg/mL
CC1(C)S[C@@H]2[C@H](NC(=O)Cc3ccccc3)C(=O)N2[C@H]1C(=O)O	≤ 0.12 µg/mL
COc1cc(NS(=O)(=O)c2ccc(N)cc2)nc(OC)n1	> 256 µg/mL

Qu. // query minimum inhibitory concentration value for entry CCN1CCN(c2cc3c(cc2F)c(=O)c(C(=O)O)cn3C2CC2)CC1
Ans. ≤ 0.12 µg/mL

Data origin: the supplement of paper PMC8612539
